The reported numbers originate from ChEMBL document CHEMBL5303300.

# Tested on: U2OS
# protocolSummary: Multiplex assay against U2OS
# Format: toxicity, cell-based
# runConditions: human, 48 h, 1 µM, compound concentration 1 uM, number of replicates 2
Consider the following compounds and their measured Population Mitotic Cells (%) readings.
metric: Population Mitotic Cells (%)

INSERT INTO assay_data (compound, metric, valueobserved) VALUES
  ('CN1CCc2cc(Nc3ncc(C(F)(F)F)c(NCc4cc[nH]n4)n3)ccc2C1', 'Population Mitotic Cells (%)', 0),
  ('CC(C)c1c(NC(=O)Nc2ccc(Cl)cc2)c(=O)n(-c2ccccc2)n1C', 'Population Mitotic Cells (%)', 50),
  ('COc1ccc(F)c(F)c1C(=O)c1cnc(NC2CCN(S(C)(=O)=O)CC2)nc1N', 'Population Mitotic Cells (%)', 14),
  ('c1ccc2c(-c3coc4cc(-c5ccc(N6CCNCC6)cc5)cnc34)ccnc2c1', 'Population Mitotic Cells (%)', 25),
  ('Cl.Clc1ccc2nsnc2c1NC1=NCCN1 [TIZANIDINE HYDROCHLORIDE]', 'Population Mitotic Cells (%)', 60),
  ('CS(=O)(=O)c1ccc(C(=O)Nc2ccc(F)c(COc3ccc(Br)cc3CNCCO)c2)c(Cl)c1.O=CO', 'Population Mitotic Cells (%)', 16);
